# system.tested: EP4 (Homo sapiens (Human))
# assay.comment: hEP4 cAMP assay (BT549 breast cancer cells, HTRF cAMP)
# Assay type: cell-based
# condition.info: antagonistic activity, PGE2 6 nM
Provide the reported pIC50 of each item.
By convention, pIC50 is the negative base-10 log of a molar concentration.

Lookup: Reported pIC50, compound CCOc1cc(-c2cc(NCCc3ccc4ccccc4c3Cl)ncn2)ccc1C(=O)O [Ex 260] : ____
Found: 6.39

Lookup: Follow-up item: CCOc1cc(-c2cc(NCCc3cc4ccccc4cc3C#N)ncn2)ccc1C(=O)O [Ex 92]
Found: 7.24

Lookup: Could you do the same for COc1cc2occc2c(C)c1CCNc1cc(-c2ccc(C(=O)O)c(OC3CCC3)c2)ncn1 [Ex 208] , please?
Found: 6.61

Lookup: Can you handle CCOc1cc(-c2cc(NCCc3ccc4cc[nH]c4c3)ncn2)ccc1CC(=O)O [Ex 271] next?
Found: 6.36

* * *

# system.tested: EP4 (Homo sapiens (Human))
# assay.comment: hEP4 cAMP assay (BT549 breast cancer cells, HTRF cAMP)
# Assay type: cell-based
# condition.info: antagonistic activity, PGE2 6 nM
What IC50 was measured for each of the following?
Numbers only; they are read as nM.

Lookup: Return reported IC50; argument: CSc1cc(-c2cc(NCCc3ccc4c(c3)OCCC4)ncn2)ccc1C(=O)O
Found: 513

Lookup: Same read-out for O=C(O)c1ccc(-c2cc(NCCc3ccc4scnc4c3)ncn2)cc1OC1CCC1 ?
Found: 538

Lookup: Cool, now NC(=O)c1ccc(-c2cc(NCCc3ccc4cc[nH]c4c3)ncn2)s1
Found: 561

* * *

# system.tested: PTGER2 (EP2) (Homo sapiens (Human))
# assay.comment: hEP2 b-arrestin assay (PathHunter HEK 293 PTGER2 b-arrestin cells)
# condition.info: antagonistic activity, beta-arrestin assay; read-out: hEP2 b-arr IC50
measurement.type: IC50 (nM)
Reply numerically in nM, unit not repeated.

Lookup: May I ask what IC50 has been recorded for CCc1cc(-c2cc(NCCc3ccc4c(c3C)OCCO4)ncn2)ccc1C(=O)O ?
Found: 67

Lookup: Check COc1cc2ccoc2cc1CCNc1cc(-c2ccc(C(=O)O)c(OC3CCC3)c2)ncn1 too.
Found: 113

Lookup: One more compound: CCc1cc(-c2cc(NCCc3c(OC)cc4ccccc4c3C)ncn2)ccc1CC(=O)O
Found: 88

Lookup: Try CSc1cc(-c2cc(NCCc3cc4ccsc4cc3C#N)ncn2)ccc1C(=O)O next.
Found: 47

* * *

# system.tested: PTGER2 (EP2) (Homo sapiens (Human), UniProt P43116)
# Sequence (P43116 whole entry): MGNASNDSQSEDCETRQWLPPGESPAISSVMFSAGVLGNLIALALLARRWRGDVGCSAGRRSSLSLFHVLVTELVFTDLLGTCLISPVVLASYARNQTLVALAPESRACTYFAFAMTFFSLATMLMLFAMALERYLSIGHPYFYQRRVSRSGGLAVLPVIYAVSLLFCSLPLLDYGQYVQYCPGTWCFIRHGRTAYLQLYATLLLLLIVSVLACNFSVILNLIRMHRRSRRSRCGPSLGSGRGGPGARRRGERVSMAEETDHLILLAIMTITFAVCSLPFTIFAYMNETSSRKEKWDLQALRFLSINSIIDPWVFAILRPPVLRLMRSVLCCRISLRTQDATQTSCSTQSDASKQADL
# assay.comment: hEP2 b-arrestin assay (PathHunter HEK 293 PTGER2 b-arrestin cells)
# condition.info: antagonistic activity, beta-arrestin assay; read-out: hEP2 b-arr IC50
measurement.type: pIC50
// scale note: pIC50 = -log10(conc_M); give the bare number

Lookup: If you can, please state the reported pIC50 value of CCCc1cc(-c2cc(NCCc3cc(F)c4sccc4c3)ncn2)ccc1C(N)=O .
Found: 6.70

Lookup: Repeat for the following compound: COc1c(CCNc2cc(-c3ccc(C(=O)O)c(CC(C)C)c3)ncn2)cc2ccsc2c1F
Found: 7.20

Lookup: What would you report for CCOc1cc(-c2cc(NCCc3cc4occc4cc3OC)ncn2)ccc1OCC(=O)O ?
Found: 6.74

Lookup: Now the same for CCc1cc(-c2cc(NCCc3cc(F)c4sccc4c3)ncn2)sc1C(=O)O
Found: 6.57

Lookup: Do the same for CCOc1cc(-c2cc(NCCc3ccc4ccsc4c3C)ncn2)ccc1CC(=O)O please
Found: 6.17

Lookup: Note, next up: COc1cc2c(c(C)c1CCNc1cc(-c3ccc(CC(=O)O)c(OC(F)(F)F)c3)ncn1)OCCO2
Found: 8.15

Lookup: Likewise for CCOc1cc(-c2cc(NCCc3cc4ccsc4cc3OC)ncn2)sc1-c1noc(=O)[nH]1 ?
Found: 8.15

Lookup: Another compound: CSc1cc(-c2cc(NCCc3c(F)cc4ccccc4c3F)ncn2)ccc1CC(=O)O
Found: 5.82

Lookup: Another compound to check: CCOc1cc(-c2cc(NCCc3cc4ccoc4cc3OC)ncn2)ccc1OCC(=O)O
Found: 7.40

Lookup: What do we get for CCc1nc(-c2cc(NCCc3ccc4ccccc4c3C)ncn2)sc1-c1noc(=O)[nH]1 ?
Found: 6.63

Lookup: Note, next up: CCCc1cc(-c2cc(NCCc3cc4ccsc4cc3OC)ncn2)ccc1C(=O)O
Found: 8.10

Lookup: Now try CC(C)Cc1cc(-c2cc(NCCc3ccc4sccc4c3F)ncn2)ccc1C(=O)O .
Found: 7.21

Lookup: What would you report for CCOc1cc(-c2cc(NCCc3ccc4sccc4c3)ncn2)sc1-c1noc(=O)[nH]1 ?
Found: 7.92

Lookup: Item: CCOc1cc2ccccc2cc1CCNc1cc(-c2ccc(OCC(=O)O)c(OCC)c2)ncn1
Found: 7.46

Lookup: And then COc1c(CCNc2cc(-c3ccc(CC(=O)O)c(CC(C)C)c3)ncn2)cc2ccsc2c1F , what is it?
Found: 6.82

Lookup: Now the same for CCOc1cc2c(cc1CCNc1cc(-c3ccc(C(=O)O)c(OC4CCC4)c3)ncn1)OCCO2
Found: 7.68

Lookup: Also need CCc1cc(-c2cc(NCCc3ccc4ccccc4c3C)ncn2)ccc1C(=O)O , thanks.
Found: 6.97

Lookup: Now try COc1cc2occc2cc1CCNc1cc(-c2ccc(C(=O)O)c(SC)c2)ncn1 .
Found: 8.00

Lookup: Please answer likewise for CCOc1cc(-c2cc(NCCc3cc4c(cc3C)OCCO4)ncn2)sc1-c1noc(=O)[nH]1
Found: 7.92

* * *

# system.tested: UniProtKB P35408
# assay.comment: cell-based
measurement.type: IC50 (nM)
Number in nM, nothing else.

Lookup: Tell me the measured IC50 of CCOc1cc2c(cc1CCNc1cc(-c3ccc(C(=O)O)c(CC)c3)ncn1)OCCO2 , please.
Found: 930

Lookup: Entry CCOc1cc(-c2cc(NCCc3ccc4ccccc4c3C)ncn2)ccc1C(=O)O please
Found: 287

Lookup: Same again, this time with CCOc1cc(-c2cc(NCCc3cc4c(cc3OC)CCCC4)ncn2)sc1C(=O)O
Found: 3

Lookup: Cool, now CCc1cc(-c2cc(NCCc3ccc4ccccc4c3C)ncn2)ccc1C(=O)O
Found: 288

* * *

# system.tested: PTGER4 (EP4) (Homo sapiens (Human))
# Sequence (P35408 whole entry): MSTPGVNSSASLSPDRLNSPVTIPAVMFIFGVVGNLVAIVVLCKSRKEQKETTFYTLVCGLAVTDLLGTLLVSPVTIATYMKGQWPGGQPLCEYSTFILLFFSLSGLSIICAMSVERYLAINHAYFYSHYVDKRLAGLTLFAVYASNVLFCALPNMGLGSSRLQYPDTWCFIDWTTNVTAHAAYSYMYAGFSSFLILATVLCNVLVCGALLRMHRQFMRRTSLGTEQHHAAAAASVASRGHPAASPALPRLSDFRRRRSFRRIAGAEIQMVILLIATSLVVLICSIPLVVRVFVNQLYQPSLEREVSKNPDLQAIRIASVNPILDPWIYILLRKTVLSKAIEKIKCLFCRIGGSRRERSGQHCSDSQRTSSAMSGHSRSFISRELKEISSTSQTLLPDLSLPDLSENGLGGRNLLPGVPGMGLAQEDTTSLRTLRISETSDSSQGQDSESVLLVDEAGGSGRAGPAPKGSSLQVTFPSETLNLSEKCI
# assay.comment: cell-based
measurement.type: log10 IC50 (log10 of the value in µM)
Could you please treat all values as log10 of IC50 in µM?

Lookup: What does the data say about its log10 IC50? Entry: CCOc1cc(-c2cc(NCCc3cc4ccoc4cc3OC)ncn2)ccc1OCC(=O)O [Ex 112]
Found: -0.90

Lookup: Also COc1cc(-c2cc(NCCc3ccc4sccc4c3F)ncn2)ccc1CC(=O)O [Example 382] , if possible.
Found: -1.09

Lookup: Also need CCOc1cc(-c2cc(NCCc3ccc4ccccc4c3C)ncn2)ccc1OCC(=O)O [Ex 166] , thanks.
Found: -1.31

Lookup: Again, but for COc1cc2c(c(C)c1CCNc1cc(-c3ccc(CC(=O)O)c(OC(F)F)c3)ncn1)OCCO2 [Example 441]
Found: -1.28

Lookup: Record: CCOc1cc(-c2cc(NCCc3ccc4c(c3C)OCCO4)ncn2)ccc1CC(=O)O [Example 506]
Found: -0.48

Lookup: Thanks! And CCOc1cc(-c2cc(NCCc3cc4ccccc4cc3C)ncn2)sc1C(=O)O [Ex 40] ?
Found: -1.60

Lookup: Record: CSc1cc2c(cc1CCNc1cc(-c3ccc(C(=O)O)c(OC4CCC4)c3)ncn1)OCCO2 [Ex 70]
Found: -0.68

Lookup: Another: CCOc1cc(-c2cc(NCCc3cc4ccsc4c(F)c3OC)ncn2)sc1C(=O)O [Example 484]
Found: -2.52

Lookup: // next record COc1cc2sccc2cc1CCNc1cc(-c2ccc(C(=O)O)cc2)ncn1 [Ex 276]
Found: 0.26

Lookup: Note, next up: CCCc1cc(-c2cc(NCCc3cc(F)c4sccc4c3)ncn2)ccc1C1(C(=O)O)CC1 [Example 557]
Found: -0.93

Lookup: Next compound up: CCOc1cc(-c2cc(NCCc3ccc4sccc4c3F)ncn2)ccc1CC(=O)O [Example 368]
Found: -1.18

Lookup: Now consider COc1cc2c(cc1CCNc1cc(-c3ccc(C(=O)O)c(OC4CC4)c3)ncn1)OCCO2 [Example 520] .
Found: -0.97

* * *

Provide the recorded IC50 for the entries that follow.
# system.tested: UniProt P35408
# assay.comment: hEP4 cAMP assay (BT549 breast cancer cells, HTRF cAMP)
# Format: cell-based
# condition.info: antagonistic activity, PGE2 6 nM

Lookup: Give UniProt P35408 IC50 for N#Cc1cc2c(cc1CCNc1cc(-c3ccc(C(=O)O)c(OC4CCC4)c3)ncn1)OCCO2
Found: 82 nM

Lookup: Input CCOc1cc(-c2cc(NCCc3ccc4ncccc4c3)ncn2)sc1-c1noc(=O)[nH]1
Found: 64 nM

Lookup: Try this compound next: CCOc1cc(-c2cc(NCCc3ccc4ccccc4c3C)ncn2)sc1/C=C/C(=O)O
Found: 106 nM

Lookup: Note, next up: CCOc1cc(-c2cc(NCCc3cc4cnccc4cc3F)ncn2)sc1C(=O)O
Found: 74 nM

Lookup: For CCSc1cc(-c2cc(NCCc3cc4ccoc4cc3OC)ncn2)ccc1C(=O)O then?
Found: 157 nM

Lookup: Lookup CCCc1cc(-c2cc(NCCc3ccc4ccccc4c3C)ncn2)ccc1C(=O)O
Found: 61 nM

Lookup: Thanks! And CCOc1cc(-c2cc(NCCc3cc4c(cc3OC(F)F)OCO4)ncn2)sc1C(=O)O ?
Found: 90 nM

Lookup: Then what about the compound CCOc1cc(-c2cc(NCCc3cc4ccsc4cc3OC)ncn2)ccc1C(=O)O ?
Found: 78 nM

Lookup: Also check CCOc1cc(-c2cc(NCCc3ccc4sccc4c3)ncn2)ccc1C(C)C(=O)O (centres unmarked)
Found: 130 nM

Lookup: What do we get for COc1cc2ccccc2c(F)c1CCNc1cc(-c2ccc(CC(=O)O)c(SC)c2)ncn1 ?
Found: 85 nM

Lookup: Okay, and CCOc1cc(-c2cc(NCCc3cc4ccoc4cc3F)ncn2)ccc1OCC(=O)O ?
Found: 127 nM
